# System: C. albicans ATCC-64124
# METHOD NOTES: Antifungal growth inhibition assay, C. albicans
# Format: cell-based, Candida albicans
# CONDITION: C. albicans ATCC-64124; molar value in brackets; read-out: IC50 versus C. albicans
MEASURED PARAMETER: pIC50
One number for each entry, as −log10 of the molar value.

Request the reported pIC50 associated with `COC(=O)c1cc(O)c(O)c(C(=O)NCCC(=O)N[C@@H](CCCN(O)C(=O)[C@H](CO)NC(=O)CCNC(=O)c2nc(C(=O)OC)cc(O)c2O)C(=O)O)n1`
4.82
